Where do the numbers come from? From ChEMBL document CHEMBL1138932.

System: Hepatitis B virus
assay-overview: Inhibition of HBV DNA replication
Assay type: functional, organism-based
We label by threshold. Values of IC50 strictly beneath 2 µM are 1.0. Values of 2 µM and up are 0.0.

## Input Here's an entry: Cc1ccc(S(=O)(=O)n2c(CCN3C(=O)c4ccccc4C3=O)nc3ccccc32)cc1 . Is its IC50 below 2 µM?
## Output 0.0

## Input Here's an entry: Cn1c(CCC2CCCO2)nc2cc(Cl)c(Cl)cc21 (stereo not given) . Is its IC50 below 2 µM?
## Output 0.0

## Input Here's an entry: O=C1c2ccccc2C(=O)N1CCc1nc2cc(F)c(F)cc2n1S(=O)(=O)c1cccc([N+](=O)[O-])c1 . Is its IC50 below 2 µM?
## Output 1.0

## Input Here's an entry: O=C1c2ccccc2C(=O)N1CCc1nc2cc(Cl)c(Cl)cc2n1S(=O)(=O)c1ccc([N+](=O)[O-])cc1 . Is its IC50 below 2 µM?
## Output 0.0

## Input Here's an entry: Cc1ccc(S(=O)(=O)n2c(CN3C(=O)c4ccccc4C3=O)nc3cc(Cl)c(Cl)cc32)cc1 . Is its IC50 below 2 µM?
## Output 1.0

====

Tested on: HepG2
assay-overview: Selectivity index, CC50 for HepG2.2.15 cells/IC50 for HBV
Assay type: functional
I'd be grateful if you could share measured Selectivity index for these entries.
# answer = number (no unit)

get_value(item= Cc1ccc(S(=O)(=O)n2c(CCN3C(=O)c4ccccc4C3=O)nc3cc(F)c(F)cc32)cc1 , readout=Selectivity index) returns 26

get_value(item= Cn1c(CCc2ccncc2)nc2cc(Cl)c(Cl)cc21 , readout=Selectivity index) returns 8

get_value(item= Cc1ccc(Cn2c(CCN)nc3cc(Cl)c(Cl)cc32)cc1 , readout=Selectivity index) returns 3

get_value(item= O=C1c2ccccc2C(=O)N1CCc1nc2ccccc2n1S(=O)(=O)c1ccccc1 , readout=Selectivity index) returns 13

get_value(item= O=C1c2ccccc2C(=O)N1CCc1nc2cc(F)c(F)cc2n1S(=O)(=O)c1ccc(C(F)(F)F)cc1 , readout=Selectivity index) returns 3

get_value(item= Cn1c(CCC2CCCO2)nc2cc(Cl)c(Cl)cc21 (stereo not given) , readout=Selectivity index) returns 5

get_value(item= Cc1ccc(S(=O)(=O)n2c(CCN3Cc4ccccc4C3=O)nc3cc(Cl)c(Cl)cc32)cc1 , readout=Selectivity index) returns 7

get_value(item= Nc1ncnc2c1ncn2CCOCP(=O)(O)O , readout=Selectivity index) returns 156

get_value(item= Cc1ccc(S(=O)(=O)n2c(CCN3C(=O)c4ccccc4C3=O)nc3ccccc32)cc1 , readout=Selectivity index) returns 75

====

Tested on: Hepatitis B virus
assay-overview: Inhibition of HBV DNA replication
Type: functional, organism-based
Each entry falls into one class according to its IC50; the ranges are lower range = under 1 µM, middle range = from 1 µM up to 7 µM, upper range = 7 µM and over

## Input Tag the class for Cc1ccc(S(=O)(=O)n2c(CCN3C(=O)c4ccccc4C3=O)nc3cc(F)c(F)cc32)cc1
## Output middle range

## Input Tag the class for Cn1c(CCC2CCCCC2)nc2cc(Cl)c(Cl)cc21
## Output upper range

## Input Tag the class for O=C1c2ccccc2C(=O)N1CCc1nc2cc(F)c(F)cc2n1S(=O)(=O)c1ccccc1[N+](=O)[O-]
## Output lower range

## Input Tag the class for Cc1ccc(S(=O)(=O)n2c(N3C(=O)c4ccccc4C3=O)nc3cc(Cl)c(Cl)cc32)cc1
## Output upper range

## Input Tag the class for Cn1c(CCN2C(=O)c3ccccc3C2=O)nc2cc(Cl)c(Cl)cc21
## Output lower range

## Input Tag the class for Cc1ccc(Cn2c(CCN3C(=O)c4ccccc4C3=O)nc3cc(Cl)c(Cl)cc32)cc1
## Output lower range

## Input Tag the class for Nc1ccn([C@@H]2CS[C@H](CO)O2)c(=O)n1
## Output lower range

## Input Tag the class for O=C1c2ccccc2C(=O)N1CCc1nc2ccccc2n1S(=O)(=O)c1cccc(C(F)(F)F)c1
## Output upper range

## Input Tag the class for Cc1ccc(S(=O)(=O)n2c(CCN3Cc4ccccc4C3=O)nc3cc(Cl)c(Cl)cc32)cc1
## Output middle range

## Input Tag the class for Cn1c(CCc2ccncc2)nc2cc(Cl)c(Cl)cc21
## Output middle range

## Input Tag the class for Nc1ncnc2c1ncn2CCOCP(=O)(O)O
## Output middle range

## Input Tag the class for O=C1c2ccccc2C(=O)N1CCc1nc2cc(F)c(F)cc2n1S(=O)(=O)c1ccc(C(F)(F)F)cc1
## Output middle range

## Input Tag the class for Cc1ccc(S(=O)(=O)n2c(CCCN3C(=O)c4ccccc4C3=O)nc3cc(Cl)c(Cl)cc32)cc1
## Output lower range

## Input Tag the class for Cc1ccc(C(=O)n2c(CCN3C(=O)c4ccccc4C3=O)nc3cc(Cl)c(Cl)cc32)cc1
## Output upper range

## Input Tag the class for O=C1c2ccccc2C(=O)N1CCc1nc2cc(Cl)c(Cl)cc2[nH]1
## Output upper range

## Input Tag the class for CCCc1nc2cc(Cl)c(Cl)cc2n1C
## Output middle range

====

Tested on: Hepatitis B virus
assay-overview: Inhibition of HBV DNA replication
Type: functional, organism-based
I'd be grateful if you could share measured IC50 for these entries.
Note: state the figure and append the unit.

get_value(item= Cc1ccc(S(=O)(=O)n2c(CCN3C(=O)C=CC3=O)nc3cc(Cl)c(Cl)cc32)cc1 , readout=IC50) returns 680 nM

get_value(item= Cc1ccc(S(=O)(=O)n2c(CCN3C(=O)c4ccccc4C3=O)nc3cc(Cl)c(Cl)cc32)cc1 , readout=IC50) returns 2900 nM

get_value(item= CC(C)c1ccc(S(=O)(=O)n2c(CCN3C(=O)c4ccccc4C3=O)nc3cc(Cl)c(Cl)cc32)cc1 , readout=IC50) returns 700 nM

get_value(item= Cc1ccc(Cn2c(CCN)nc3cc(Cl)c(Cl)cc32)cc1 , readout=IC50) returns 1400 nM

get_value(item= O=C1c2ccccc2C(=O)N1CCc1nc2ccccc2n1S(=O)(=O)c1ccccc1 , readout=IC50) returns 2200 nM

====

Test system: HepG2
assay-overview: Selectivity index, CC50 for HepG2.2.15 cells/IC50 for HBV
Format: functional
Each entry falls into one class according to its Selectivity index; the ranges are class 0 (below 6), class 1 (6 to below 30), class 2 (30 or more)

## Input Tag the class for O=C1c2ccccc2C(=O)N1CCc1nc2ccccc2n1S(=O)(=O)c1cccc(C(F)(F)F)c1
## Output class 0

## Input Tag the class for O=C1c2ccccc2C(=O)N1CCc1nc2cc(Cl)c(Cl)cc2[nH]1
## Output class 0

## Input Tag the class for O=C1c2ccccc2C(=O)N1CCc1nc2cc(Cl)c(Cl)cc2n1S(=O)(=O)c1ccc([N+](=O)[O-])cc1
## Output class 0

## Input Tag the class for COc1ccc(S(=O)(=O)n2c(CCN3C(=O)c4ccccc4C3=O)nc3cc(Cl)c(Cl)cc32)cc1
## Output class 1

## Input Tag the class for Cn1c(CCN2C(=O)c3ccccc3C2=O)nc2cc(Cl)c(Cl)cc21
## Output class 2

## Input Tag the class for Cc1ccc(S(=O)(=O)n2c(CCCN3C(=O)c4ccccc4C3=O)nc3cc(Cl)c(Cl)cc32)cc1
## Output class 2

## Input Tag the class for CC(C)c1ccc(S(=O)(=O)n2c(CCN3C(=O)c4ccccc4C3=O)nc3cc(Cl)c(Cl)cc32)cc1
## Output class 1

## Input Tag the class for Cc1ccc(S(=O)(=O)n2c(CN3C(=O)c4ccccc4C3=O)nc3cc(Cl)c(Cl)cc32)cc1
## Output class 2

## Input Tag the class for Cc1ccc(S(=O)(=O)n2c(CCN3C(=O)C=CC3=O)nc3cc(Cl)c(Cl)cc32)cc1
## Output class 2

====

Tested on: HepG2
assay-overview: Selectivity index, CC50 for HepG2.2.15 cells/IC50 for HBV
Format: functional
parameter-measured: Selectivity index
# answer = number (no unit)

get_value(item= O=C1c2ccccc2C(=O)N1CCc1nc2cc(F)c(F)cc2n1S(=O)(=O)c1ccccc1[N+](=O)[O-] , readout=Selectivity index) returns 120

get_value(item= O=C1c2ccccc2C(=O)N1CCc1nc2cc(F)c(F)cc2n1S(=O)(=O)c1cccc([N+](=O)[O-])c1 , readout=Selectivity index) returns 71

get_value(item= Cc1ccc(S(=O)(=O)n2c(CCN3C(=O)c4ccccc4C3=O)nc3cc(Cl)c(Cl)cc32)cc1 , readout=Selectivity index) returns 299

====

Test system: HepG2
assay-overview: Selectivity index, CC50 for HepG2.2.15 cells/IC50 for HBV
Assay type: functional
parameter-measured: Selectivity index

get_value(item= Cc1ccc(S(=O)(=O)n2c(N3C(=O)c4ccccc4C3=O)nc3cc(Cl)c(Cl)cc32)cc1 , readout=Selectivity index) returns 6

get_value(item= CCCc1nc2cc(Cl)c(Cl)cc2n1C , readout=Selectivity index) returns 6

get_value(item= Cc1ccc(C(=O)n2c(CCN3C(=O)c4ccccc4C3=O)nc3cc(Cl)c(Cl)cc32)cc1 , readout=Selectivity index) returns >19

get_value(item= Cn1c(CCC2CCCCC2)nc2cc(Cl)c(Cl)cc21 , readout=Selectivity index) returns >27
